Tested target: Adrenergic receptor alpha-1 (Homo sapiens) (UniProt P35348+P25100+P35368)
Run description: Percent decrease in Alpha-1 adrenergic receptor binding using prazosin
Type: protein assay
Reported property: Decrease (%)
Return type: number; implicit unit %.

In [3]: df
Out[3]:
                                   compound  reported_property  value_measured
0  c1ccc2c(c1)CCN1CCc3c([nH]c4ccccc34)C21 (stereo not given)           Decrease             -82
1         CN1CCc2ccccc2Cc2[nH]c3ccccc3c2CC1           Decrease             -97
2  c1ccc2c3c([nH]c2c1)C1c2[nH]c4ccccc4c2CCN1CC3           Decrease             -88
3  C[N+]12CCc3c([nH]c4ccccc34)C1c1[nH]c3ccccc3c1CC2 (stereo not given)           Decrease             -64

Switching to the query record.
stdin: Report measured Decrease; entry is COc1cc2c(cc1OC)C1c3[nH]c4ccccc4c3CCN1CC2 (stereo not given)
stdout: -94
